Provenance of the data: patent US20240150351A1

- Tested on: HBV
- test-protocol: HBV-DNA antiviral assay using HepG2.117 cells (intracellular HBV DNA by qPCR)
- Assay type: cell-based, genotype D HBV
- test-context: Hepatitis B virus, 72 h, 3 days incubation, HBV DNA inhibition
pEC50: −log10 of the molar value. Where a name gives a salt, the structure may show the parent alone.
Each item that follows carries a reported pEC50.

>  <compound>
C=C[C@H](C)Nc1nc2c(c(=O)n1-c1ccc(C(=O)N(C)C(=O)OCOC(=O)C[C@H](O)C(=O)O)cc1)C[C@@H](C)N(C(=O)c1ccc(Br)c(C(F)(F)F)c1)C2 [Compound 9]

>  <pEC50>
≥ 7.30

$$$$
>  <compound>
C=C[C@H](C)Nc1nc2c(c(=O)n1-c1ccc(C(=O)N(C)C(=O)OCOP(=O)(O)O)cc1)C[C@@H](C)N(C(=O)c1ccc(Br)c(C(F)(F)F)c1)C2 [Compound 2]

>  <pEC50>
≥ 7.30

$$$$
>  <compound>
C=C[C@H](C)Nc1nc2c(c(=O)n1-c1ccc(C(=O)N(C)C(=O)OCOC(=O)[C@@H](N)C(C)C)cc1)C[C@@H](C)N(C(=O)c1ccc(Br)c(C(F)(F)F)c1)C2 [Compound 4, hydrochloride]

>  <pEC50>
≥ 7.30

$$$$
